Target: Potassium voltage-gated channel subfamily KQT member 2 (Rattus norvegicus) (UniProt O88943)
Sequence (O88943 whole entry, looked up): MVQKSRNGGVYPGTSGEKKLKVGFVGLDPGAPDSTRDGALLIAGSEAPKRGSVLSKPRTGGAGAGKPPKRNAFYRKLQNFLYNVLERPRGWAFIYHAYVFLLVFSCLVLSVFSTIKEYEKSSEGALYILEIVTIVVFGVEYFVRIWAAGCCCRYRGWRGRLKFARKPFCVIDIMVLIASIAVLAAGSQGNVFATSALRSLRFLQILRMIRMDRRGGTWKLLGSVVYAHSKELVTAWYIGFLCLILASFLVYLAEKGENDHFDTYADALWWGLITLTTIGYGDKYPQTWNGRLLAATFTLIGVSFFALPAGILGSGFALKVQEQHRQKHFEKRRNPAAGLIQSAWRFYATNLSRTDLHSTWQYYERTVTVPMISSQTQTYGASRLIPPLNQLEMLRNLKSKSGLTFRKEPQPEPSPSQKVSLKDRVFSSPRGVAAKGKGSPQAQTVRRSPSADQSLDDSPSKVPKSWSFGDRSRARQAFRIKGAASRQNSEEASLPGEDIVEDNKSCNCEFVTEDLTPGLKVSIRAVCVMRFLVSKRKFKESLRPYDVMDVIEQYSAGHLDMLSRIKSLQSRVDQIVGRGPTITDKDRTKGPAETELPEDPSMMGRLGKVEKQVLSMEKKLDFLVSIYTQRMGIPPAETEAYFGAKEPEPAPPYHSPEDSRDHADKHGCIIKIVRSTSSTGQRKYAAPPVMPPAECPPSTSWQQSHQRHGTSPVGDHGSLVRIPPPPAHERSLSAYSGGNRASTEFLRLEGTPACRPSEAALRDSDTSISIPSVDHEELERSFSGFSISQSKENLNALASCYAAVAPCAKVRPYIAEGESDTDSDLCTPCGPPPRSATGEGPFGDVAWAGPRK
Test: rat KCNQ2 channel potentiation, selectivity assay for KCNQ1 potentiator project, KCNQ2-CHO-K1 cells (AID 493009);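 further: assay conditions were tuned for KCNQ1 rather than KCNQ2 modulators; signal is max minus min fluorescence divided by baseline after thallium stimulus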
Settings: FluxOR thallium flux fluorescence, at 10 µM, scaled: buffer 0, activator control 100
Activity calls are given as the source filed them.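 How the source made its calls: active means mean duplicate potentiation above the buffer control mean plus 5 SD of buffer wells; inactive means the rest.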
Lab note: assign the record to one of active, inactive

Solved entries:
CNC(=O)CSc1nc2c(c(=O)n(C)c(=O)n2C)n1Cc1ccc(C)cc1	inactive
Cc1ccc(O)c(C(=O)CC(=O)c2ccccc2Cl)c1	active
Cc1ncc(CN2CCC(CO)(CCc3ccccc3)CC2)s1	inactive

Shifting focus to the compound that follows.
Assay outcome for "COc1ccc2nc(N=Nc3ccc(O)c4ccccc34)sc2c1" : what was it?
active
